Attribution: patent US11312701B2

Test system: Huh7 hepatocellular carcinoma cells
Experiment: Cell Titer Glo (CTG) cell proliferation experiment
Format: cell-based
Settings: Homo sapiens, 72 h, HuH-7 cells, 3 days, concentration leading to absolute half growth inhibition
Description: Cell Titer Glo (CTG) experiment was used in the present invention to evaluate the functional effects of the compounds on cell proliferation. […] Compound-mediated inhibition of cell proliferation/survival was assessed by quantification of cellular ATP levels using CTG reagent (Promega, #G7573). […] The dose effect as evaluated by a 5-fold serial dilution of the test compound, starting from 10 μM. • 4. […]
outcome_measure: IC50 (nM)

CN1CCN(Cc2ccc(N(C)C(=O)Nc3cc(NC4CCC(F)(F)C4)c(C#N)cn3)nc2C=O)C(=O)C1 (centres unmarked)
48.6
CN1CCN(Cc2ccc(N(C)C(=O)Nc3cc(NCC4CCCO4)c(C#N)cn3)nc2C=O)C(=O)C1 (centres unmarked)
55.4
CN1CCN(Cc2ccc(N(C)C(=O)Nc3cc(NC4CC4)c(C#N)cn3)nc2C=O)C(=O)C1
26.2
COCCOc1cc(NC(=O)N(C)c2ccc(CN3CCN(C)CC3=O)c(C=O)n2)ncc1C#N
410
CN1CCN(Cc2ccc(N(C)C(=O)Nc3cc(N4CCOCC4)c(C#N)cn3)nc2C=O)C(=O)C1
1800

P = CN1CCN(Cc2ccc(N(C)C(=O)Nc3cc(NCC4CC4)c(C#N)cn3)nc2C=O)C(=O)C1
Q = CN1CCN(Cc2ccc(N(C)C(=O)Nc3cc(NC4CC4)c(I)cn3)nc2C=O)C(=O)C1
[ask] Of P and Q , whose reported IC50 is numerically smaller? Provide the label of your selected option as the answer.
[reply] P

* * *

biological target: FGFR4 (Homo sapiens, UniProt P22455)
Sequence (P22455 22-802): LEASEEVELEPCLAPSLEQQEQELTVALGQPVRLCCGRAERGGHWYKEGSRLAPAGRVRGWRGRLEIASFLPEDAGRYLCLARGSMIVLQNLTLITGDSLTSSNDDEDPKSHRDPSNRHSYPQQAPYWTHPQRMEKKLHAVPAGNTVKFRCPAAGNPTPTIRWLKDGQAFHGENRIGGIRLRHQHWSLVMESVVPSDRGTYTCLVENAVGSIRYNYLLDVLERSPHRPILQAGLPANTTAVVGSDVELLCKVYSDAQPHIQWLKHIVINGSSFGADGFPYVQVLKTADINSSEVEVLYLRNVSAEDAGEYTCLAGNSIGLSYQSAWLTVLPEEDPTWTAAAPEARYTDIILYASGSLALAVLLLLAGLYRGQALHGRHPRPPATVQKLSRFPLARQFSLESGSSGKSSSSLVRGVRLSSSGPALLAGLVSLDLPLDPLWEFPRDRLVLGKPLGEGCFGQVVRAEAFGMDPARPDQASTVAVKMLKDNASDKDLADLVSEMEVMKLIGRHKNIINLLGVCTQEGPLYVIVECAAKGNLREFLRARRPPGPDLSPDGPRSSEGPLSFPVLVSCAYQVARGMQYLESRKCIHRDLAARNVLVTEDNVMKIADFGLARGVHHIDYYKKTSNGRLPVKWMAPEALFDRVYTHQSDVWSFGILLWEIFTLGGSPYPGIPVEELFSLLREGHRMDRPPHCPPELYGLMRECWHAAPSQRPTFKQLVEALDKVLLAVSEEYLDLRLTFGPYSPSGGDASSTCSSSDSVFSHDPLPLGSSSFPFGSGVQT
pIC50: −log10 of the molar value.
outcome_measure: pIC50

CN1CCN(Cc2ccc(N(C)C(=O)Nc3cc(NC4CC4)c(I)cn3)nc2C=O)C(=O)C1
8.09
CN1CCN(Cc2ccc(N(C)C(=O)Nc3cc(NC4CC(F)(F)C4)c(C#N)cn3)nc2C=O)C(=O)C1
8.55
CN1CCN(Cc2ccc(N(C)C(=O)Nc3cc(NCCF)c(C#N)cn3)nc2C=O)C(=O)C1
8.10
COC1(C)CN(c2cc(NC(=O)N(C)c3ccc(CN4CCN(C)CC4=O)c(C=O)n3)ncc2C#N)C1
8.16
CC(C)Sc1cc(NC(=O)N(C)c2ccc(CN3CCN(C)CC3=O)c(C=O)n2)ncc1C#N
8.54

a = CN1CCN(Cc2ccc(N(C)C(=O)Nc3cc(NCC4CC4)c(C#N)cn3)nc2C=O)C(=O)C1
b = CN1CCN(Cc2ccc(N(C)C(=O)Nc3cc(N4CCOCC4)c(C#N)cn3)nc2C=O)C(=O)C1
[ask] Of a and b , whose reported pIC50 is numerically smaller? Provide the label of your selected option as the answer.
[reply] b
(b: 7.28, a: 8.42)

* * *

tested on: Huh7 hepatocellular carcinoma cells; experiment: Cell Titer Glo (CTG) cell proliferation experiment; assay type: cell-based; settings: Homo sapiens, 72 h, HuH-7 cells, 3 days, concentration leading to absolute half growth inhibition
pIC50: −log10 of the molar value.
outcome_measure: pIC50

CN1CCN(Cc2ccc(N(C)C(=O)Nc3cc(OCC4CC4)c(C#N)cn3)nc2C=O)C(=O)C1
7.00
CN1CCN(Cc2ccc(N(C)C(=O)Nc3cc(NC4CC(F)(F)C4)c(C#N)cn3)nc2C=O)C(=O)C1
7.20
CCN(C(=O)Nc1cc(NC2CC2)c(C#N)cn1)c1ccc(CN2CCN(C)CC2=O)c(C=O)n1
7.19

* * *

test system: Huh7 hepatocellular carcinoma cells; test: Cell Titer Glo (CTG) cell proliferation experiment; type: cell-based; settings: Homo sapiens, 72 h, HuH-7 cells, 3 days, concentration leading to absolute half growth inhibition
pIC50: −log10 of the molar value.
outcome_measure: pIC50

COC1(C)CN(c2cc(NC(=O)N(C)c3ccc(CN4CCN(C)CC4=O)c(C=O)n3)ncc2C#N)C1
6.75

1 = CN1CCN(Cc2ccc(N(C)C(=O)Nc3cc(NC4CCOC4)c(C#N)cn3)nc2C=O)C(=O)C1 (stereo not shown)
2 = CC(C)Sc1cc(NC(=O)N(C)c2ccc(CN3CCN(C)CC3=O)c(C=O)n2)ncc1C#N
3 = CN1CCN(Cc2ccc(N(C)C(=O)Nc3cc(N4CCC5(CCOC5)C4)c(C#N)cn3)nc2C=O)C(=O)C1 (stereo not shown)
[ask] Hey, can you sort those compounds up there by pIC50, smallest first? // rank by listing labels in the order requested
[reply] 3, 2, 1
